- Test system: Leishmania amazonensis
- Assay name: Antileishmanial activity against Leishmania amazonensis promastigotes after 72 hrs by EGFP-reporter gene based fluorescence assay
- Type: functional, organism-based
Measured parameter: IC50 (µM)
Express your answer in µM, writing the number without its unit.

Return reported IC50. Input molecule: CC(=O)O/C=C1\CCC/C(C=O)=C\C[C@@H]2C(C(=O)CC=C(C)C)=CO[C@H](OC(C)=O)[C@@H]12
0.088
